src = the supplement of paper PMC6992640

Tested on: HCI09 (cells of a triple-negative luminal androgen receptor type breast cancer xenograft)
assay.summary: cell viability (% of vehicle); higher = less cytotoxic;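 further: PDX cells carrying CMV promoter-driven luciferase, viability read as total photon flux per second by IVIS imaging following D-luciferin, vehicle control 0.1% DMSO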
conditions: 10 µM; 72 h
Each entry falls in a class defined on cell viability; the bands are Low (below 90), Medium (90 to below 100), High (100 or more)

• CCCCN1CCCCC1C(=O)Nc1c(C)cccc1C.Cl (stereo unspecified) [Bupivacaine HCl] = High
• Cc1cccn2c(=O)c(-c3nnn[n-]3)cnc12.[K+] = Low
• CCC(=O)OC1(C(=O)CCl)C(C)CC2C3CCC4=CC(=O)C=CC4(C)C3(F)C(O)CC21C (stereo unspecified) [Clobetasol propionate] = High
• CCN(CCCc1ccccc1)CCCc1ccccc1.O=C(O)CC(O)(CC(=O)O)C(=O)O [Alverine Citrate] = High
• CC(C)CC(NC(=O)C(NC(=O)c1cccc(-c2ccccc2)n1)C(C)O)B(O)O (stereo unspecified) = Low

Data request: // return the class label for CC1C(NC(=O)C(=NOC(C)(C)C(=O)O)c2csc(N)n2)C(=O)N1S(=O)(=O)O (stereo unspecified)
Data returned: Medium

Data request: // return the class label for Cl.Clc1ccc2nsnc2c1NC1=NCCN1 [Tizanidine HCl]
Data returned: Medium

Data request: // return the class label for Cl.O=c1n(CCCN2CCN(c3cccc(Cl)c3)CC2)nc2ccccn12 [Trazodone HCl]
Data returned: Medium

Data request: // return the class label for COc1cccc2c1C(=O)c1c(O)c3c(c(O)c1C2=O)CC(O)(C(=O)CO)CC3OC1CC(N)C(O)C(C)O1 (stereo unspecified)
Data returned: Low

Data request: // return the class label for CCOC(=O)c1c(CSc2ccccc2)n(C)c2cc(Br)c(O)c(CN(C)C)c12.Cl [Arbidol HCl]
Data returned: Low

====

Tested on: HCI13 (cells of an ER-positive luminal breast cancer xenograft)
assay.summary: cell viability (% of vehicle); higher = less cytotoxic
conditions: 10 µM; 72 h
endpoint: cell viability
I only need the number, thanks.

The following molecules have reported results that may help.
• CCOC(=O)C1=C(C)NC(C)=C(C(=O)OC)C1c1cccc(Cl)c1Cl (configuration not stated) = 112
• COC(=O)CCc1ccc(OCC(O)CNC(C)C)cc1.Cl (configuration not stated) [Esmolol HCl] = 96.8
• CCC1(O)CC2CN(CCc3c([nH]c4ccccc34)C(C(=O)OC)(c3cc4c(cc3OC)N(C)C3C(O)(C(=O)OC)C(OC(C)=O)C5(CC)C=CCN6CCC43C65)C2)C1 (configuration not stated) = 37.6
• N.N.O=C([O-])C1(C(=O)[O-])CCC1.[Pt+2] = 86.9
• Nc1ccn(C2CCC(CO)O2)c(=O)n1 (configuration not stated) = 92
• CC(C)=CCCC(C)=CCCC(C)=CCSc1ccccc1C(=O)O = 84.5

Data request: Entry CCn1cc(C(=O)O)c(=O)c2ccc(C)nc21 has what cell viability?
Data returned: 113

Data request: Entry NCCCC(O)(P(=O)([O-])O)P(=O)(O)O.[Na+] [Alendronate sodium] has what cell viability?
Data returned: 97.6

====

Test system: HCI09
assay.summary: cell viability (% of vehicle); higher = less cytotoxic
conditions: 10 µM; 72 h
Measured cell viability, listed per entry for reference.
I only need the number, thanks.

• CN(C(=O)CN(CCO)CC(=O)N(C)C(C)(C)Cc1ccccc1)C(C)(C)Cc1ccccc1 = 69.4
• COc1cc(C=CC(=O)CC(=O)C=Cc2ccc(O)c(OC)c2)ccc1O = 69.3
• CON=C(C(=O)NC1C(=O)N2C(C(=O)O)=C(CSC(=O)c3ccco3)CSC12)c1csc(N)n1.Cl (configuration not stated) [Ceftiofur HCl] = 95.9
• CN1CCN2c3ncccc3Cc3ccccc3C2C1 (configuration not stated) = 91.4

Data request: Entry COc1ccc(-c2ccc3cc(C(=O)O)ccc3c2)cc1C12CC3CC(CC(C3)C1)C2 has what cell viability?
Data returned: 92.2

Data request: Entry CC(=O)OCC(=O)C1(O)CCC2C3CCC4=CC(=O)CCC4(C)C3C(=O)CC21C (configuration not stated) [Cortisone acetate] has what cell viability?
Data returned: 119

Data request: Entry CCCC(NC(C)C(=O)N1C(C(=O)O)CC2CCCCC21)C(=O)OCC (configuration not stated) has what cell viability?
Data returned: 131

====

Tested on: HCI16 (cells of a triple-negative basal-like breast cancer xenograft)
assay.summary: cell viability (% of vehicle); higher = less cytotoxic
conditions: 10 µM; 72 h
Note to self: use class 1 only for cell viability readings below 100; a reading exactly at 100 still gets class 0.

Would you please look over these solved cases?
- Cl.NCCS [Cysteamine HCl]: class 0
- CO/C(O)=N/[C@H](C(=O)N1CC2(CC2)C[C@H]1c1ncc(-c2ccc3c(c2)C(F)(F)c2cc(-c4ccc5nc([C@@H]6[C@H]7CC[C@H](C7)N6C(=O)[C@@H](/N=C(\O)OC)C(C)C)[nH]c5c4)ccc2-3)[nH]1)C(C)C: class 1
- CC(C)NCC(O)COc1cccc2ccccc12.Cl (stereo unspecified) [Propranolol HCl]: class 1
- CCOC(=O)C(CCc1ccccc1)NC(C)C(=O)N1C(=O)N(C)CC1C(=O)O.Cl (stereo unspecified) [Imidapril HCl]: class 1
- CC(=O)Nc1ccccc1 [Acetanilide]: class 0
- CCCNC(C)C(=O)Nc1ccccc1C (stereo unspecified): class 0
- COc1ccc2cccc(CCNC(C)=O)c2c1: class 0
- O=CC(O)C(O)C(O)CO (stereo unspecified): class 0
- COc1ccccc1OCCNCC(O)COc1cccc2[nH]c3ccccc3c12 (stereo unspecified): class 0
- CCCCCOc1ccc(-c2cc(-c3ccc(C(=O)NC4CC(O)C(O)NC(=O)C5C(O)C(C)CN5C(=O)C(C(O)CC(N)=O)NC(=O)C(C(O)C(O)c5ccc(O)c(OS(=O)(=O)[O-])c5)NC(=O)C5CC(O)CN5C(=O)C(C(C)O)NC4=O)cc3)no2)cc1.[Na+] (stereo unspecified) [Micafungin sodium]: class 1

Data request: Decide: cell viability of CN1CCCC1CCOC(C)(c1ccccc1)c1ccc(Cl)cc1.O=C(O)C=CC(=O)O (stereo unspecified) [Clemastine Fumarate] strictly below 100?
Data returned: class 1

Data request: Decide: cell viability of CC(c1ncncc1F)C(O)(Cn1cncn1)c1ccc(F)cc1F (stereo unspecified) strictly below 100?
Data returned: class 0

Data request: Decide: cell viability of COc1c2occc2cc2ccc(=O)oc12 strictly below 100?
Data returned: class 0

Data request: Decide: cell viability of Cc1cn(-c2cc(/N=C(\O)c3ccc(C)c(Nc4nccc(-c5cnccn5)n4)c3)cc(C(F)(F)F)c2)cn1 strictly below 100?
Data returned: class 0

Data request: Decide: cell viability of CC(C(=O)O)c1ccc(C(=O)c2cccs2)cc1 (stereo unspecified) strictly below 100?
Data returned: class 0

====

Measured cell viability, listed per entry for reference.
System: WHIM30 (cells of a triple-negative basal-like breast cancer xenograft)
assay.summary: cell viability (% of vehicle); higher = less cytotoxic
conditions: 10 µM; 72 h
I only need the number, thanks.

* CCOC(=O)C1=C(C)NC(C)=C(C(=O)OCC)C1c1ccccc1C=CC(=O)OC(C)(C)C [Lacidipine] | 133

Data request: Entry Cc1c(-c2cnccn2)ssc1=S [Oltipraz] has what cell viability?
Data returned: 72.8

Data request: Entry CCOc1nc2cccc(C(=O)OC(C)OC(=O)OC3CCCCC3)c2n1Cc1ccc(-c2ccccc2-c2nn[nH]n2)cc1 (stereo unspecified) [Candesartan Cilexetil] has what cell viability?
Data returned: 128

Data request: Entry C#CC1(O)CCC2C3CCc4cc(OC)ccc4C3CCC21C (stereo unspecified) [Mestranol] has what cell viability?
Data returned: 121

Data request: Entry CC1CCc2c(N3CCC(O)CC3)c(F)cc3c(=O)c(C(=O)O)cn1c23 (stereo unspecified) [Nadifloxacin] has what cell viability?
Data returned: 122

Data request: Entry CC[C@H](C)[C@H]1O[C@]2(CC[C@@H]1C)C[C@@H]1C[C@@H](C/C=C(\C)[C@@H](O[C@H]3C[C@H](OC)[C@@H](O[C@H]4C[C@H](OC)[C@@H](O)[C@H](C)O4)[C@H](C)O3)[C@@H](C)/C=C/C=C3\CO[C@@H]4[C@H](O)C(C)=C[C@@H](C(=O)O1)[C@]34O)O2 [Ivermectin] has what cell viability?
Data returned: 36.2

====

Tested on: HCI09
assay.summary: cell viability (% of vehicle); higher = less cytotoxic
conditions: 10 µM; 72 h
Measured cell viability, listed per entry for reference.
I only need the number, thanks.

The following compounds have reported results that may help.
- CCc1oc2ccccc2c1C(=O)c1cc(Br)c(O)c(Br)c1 [Benzbromarone]: 33.8
- CCC1OC(=O)CC(O)C(C)C(OC2OC(C)C(OC3CC(C)(O)C(O)C(C)O3)C(N(C)C)C2O)C(CC=O)CC(C)C(=O)C=CC(C)=CC1COC1OC(C)C(O)C(OC)C1OC.O=C(O)C(O)C(O)C(=O)O (stereo not given) [Tylosin tartrate]: 88.2
- CC1CC(OC(=O)C(O)c2ccccc2)CC(C)(C)C1 (stereo not given) [Cyclandelate]: 87.6
- O=c1oc2c(O)c(O)cc3c(=O)oc4c(O)c(O)cc1c4c23 [Ellagic acid]: 100
- O=C(NN=Cc1ccc([N+](=O)[O-])o1)c1ccc(O)cc1 [Nifuroxazide]: 37
- CCc1c2c(nc3ccc(OC(=O)N4CCC(N5CCCCC5)CC4)cc13)-c1cc3c(c(=O)n1C2)COC(=O)C3(O)CC (stereo not given) [Irinotecan]: 174
- Nc1ncn(C2OC(CO)C(O)C2O)c(=O)n1 (stereo not given) [5-Azacytidine]: 27.2
- CCCNS(=O)(=O)Nc1ncnc(OCCOc2ncc(Br)cn2)c1-c1ccc(Br)cc1 [Macitentan]: 65

Data request: Reported cell viability for HCI09, given CC(NC(=O)Cc1cc(F)cc(F)c1)C(=O)NC(C(=O)OC(C)(C)C)c1ccccc1 (stereo not given) ?
Data returned: 64.1

Data request: Reported cell viability for HCI09, given CC1(C)SC2C(NC(=O)C(C(=O)[O-])c3ccccc3)C(=O)N2C1C(=O)[O-].[Na+].[Na+] (stereo not given) [Carbenicillin, Disodium Salt] ?
Data returned: 94

Data request: Reported cell viability for HCI09, given CC12C=CC(=O)C=C1CCC1C2C(O)CC2(C)C1CCC2(O)C(=O)CO (stereo not given) [Prednisolone] ?
Data returned: 166
